# testProtocol: MTT cell viability of endothelial cells (ECs)
# Type: cell-based, human
# conditionDescription: human, column head prints none, read-out: Cell viability IC50 (cytotoxicity concentration on ECs)
pIC50: −log10 of the molar value.
quantity: pIC50

- molecule: "Cc1c(Cl)c(O)cc(O)c1C(=O)O[C@@H]1C[C@]2(C)C3[C@@H](O)C(C)(C)C[C@@]3(O)C=C(C=O)[C@]12O (stereo partly shown) [CH-205-Q]"
  result: "< 3.30"

###

# System: endothelial cells (ECs)
# testProtocol: In vitro antiangiogenesis on ECs (inhibition of endothelial cell growth)
# Type: cell-based
# conditionDescription: Homo sapiens, read-out: In vitro antiangiogenesis IC50
# Description: The endothelial cells (human endothelial-like cells, Eahy926) and 4 cancer cell lines (MCF-7, H460, HT-29, and CEM) were derived from the American Type Culture Collection (ATCC) and were maintained in DMEM or RPMI medium (Life Technologies) supplemented with 2 mM L-glutamine and 10% heat-inactivated fetal bovine serum (FBS) (Life Technologies) under standard culture conditions. The cell viability and cell number were determined by the Trypan Blue dye-exclusion method. […]
Property: IC50; scope: individual molecules

- molecule: "COc1cc(O)c(C(=O)O[C@@H]2C[C@@]3(C)C2=C(C=O)C=C2CC(C)(C)C[C@@H]23)c(C)c1Cl"
  IC50 (nM): 40.3
- molecule: "Cc1c(Cl)c(O)cc(O)c1C(=O)O[C@@H]1C[C@]2(C)C3[C@@H](O)C(C)(C)C[C@@]3(O)C=C(C=O)[C@]12O (some centres unmarked)"
  IC50 (nM): 1

###

Property: Cell viability (% of control) 250 μM; scope: individual molecules
# Tested on: endothelial cells (human endothelial-like cells, Eahy926)
# testProtocol: MTT cell viability of endothelial cells (ECs)
# Assay type: cell-based
# conditionDescription: 250 μM
quantity: Cell viability (% of control) 250 μM

- molecule: "COc1cc(O)c(C(=O)O[C@@H]2C[C@]3(C)C4CC(C)(C)CC4C=C(C=O)[C@]23O)c(C)c1Cl (stereo partly shown)"
  result: "7.1 % of control"
- molecule: "COc1cc(O)c(C(=O)O[C@@H]2C[C@]3(C)C4[C@@H](O)C(C)(C)C[C@@]4(O)C=C(C=O)[C@]23O)c(C)c1Cl (stereo partly shown)"
  result: "32.1 % of control"
- molecule: "COc1cc(O)c(C(=O)O[C@@H]2C[C@@]3(C)C2=C(C=O)C=C2CC(C)(C)C[C@@H]23)c(C)c1Cl"
  result: "7.1 % of control"
- molecule: "Cc1c(Cl)c(O)cc(O)c1C(=O)O[C@@H]1C[C@]2(C)C3CC(C)(C)CC3C=C(CO)[C@]12O (stereo partly shown)"
  result: "7.0 % of control"

Numbers sourced from patent US20110262561A1.
